TARGET ENTITY: UniProt:Q7TMA4
Sequence (Q7TMA4 whole entry): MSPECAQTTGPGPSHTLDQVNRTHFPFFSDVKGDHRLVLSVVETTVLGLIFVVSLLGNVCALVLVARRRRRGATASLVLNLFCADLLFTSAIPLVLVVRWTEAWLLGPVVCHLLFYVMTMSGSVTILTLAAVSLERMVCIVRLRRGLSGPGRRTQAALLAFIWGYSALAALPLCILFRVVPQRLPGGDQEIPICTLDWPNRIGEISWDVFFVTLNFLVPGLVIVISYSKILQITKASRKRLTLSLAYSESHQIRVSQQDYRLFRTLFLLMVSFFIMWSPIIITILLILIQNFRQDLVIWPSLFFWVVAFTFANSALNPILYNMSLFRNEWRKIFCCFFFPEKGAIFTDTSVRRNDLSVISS
ASSAY EXPLANATION: Agonist activity at mouse GPR120 expressed in CHO-FlpIn cells after 15 mins by DMR assay
pEC50: −log10 of the molar value.
PARAMETER MEASURED: pEC50

Worked examples follow.
[[record]]
smiles_str = "Cc1ccc(-n2nc(C)c3c(F)cc(-c4ccc([C@H]5C[C@@H]5C(=O)O)cc4)cc32)cc1"
result_number = 6.27

[[record]]
smiles_str = "Cc1ccc(-n2nc(C)c3cnc(-c4ccc([C@H]5C[C@@H]5C(=O)O)cc4)cc32)cc1"
result_number = 6.19


(P) COc1nn(-c2ccc(C)cc2)c2cc(-c3ccc([C@H]4C[C@@H]4C(=O)O)cc3)cc(F)c12
(Q) COc1nn(-c2ccccn2)c2cc(-c3ccc([C@H]4C[C@@H]4C(=O)O)cc3)cc(F)c12
(R) Cc1ccc(-n2nc(C)c3cnc(-c4ccc([C@H]5C[C@@H]5C(=O)O)cc4F)cc32)nc1
Task: Arrange by pEC50, high to low. List the labels, following the order given in the request.
Result: P, Q, R
(P: 7.77, Q: 6.21, R: 6.00)
